Assay: Agilent ZORBAX 300 SB-C18, 150 × 1 mm, 3.5 µm; A: water + 0.01% heptafluorobutyric acid; B: acetonitrile + 0.01% heptafluorobutyric acid; gradient (min/%B) 0/0 100/90
Conditions: stereoisomer not certain
Reported values of LC retention time for individual entries

compound	unitAbbreviation	LC retention time
Cc1cc(C)c2ccc3ccccc3c2n1	min	12.4
CCC(C)N1CNc2c(c(=O)[nH]c(=O)n2-c2ccc(C)c(C)c2)C1 (stereo not drawn)	min	8.26
COC(=O)Cn1c(=O)c2ccccc2n(CC(=O)OC)c1=O	min	10.7
Nc1ccc(C(O)(c2ccc(N)cc2)c2ccc(N)cc2)cc1	min	9.07
CCCCn1c2ccccc2n2cc(C(C)(C)C)nc12	min	12.2
Nc1ccc(C(=O)NN=Cc2cccc3ccccc23)cc1	min	11.6
CN1CCC(=O)C2CCCCC21 (stereo not drawn)	min	7.15
CNCCc1ccccc1	min	7.97
